- Method summary: AP1 Signaling Pathway (AID 357);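 note: ME-180 reporter cells stimulated with EGF at its EC50 level; % is set by controls: 0 for no effect and ±100 for the full control effect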
- Conditions: ME-180 (cervical carcinoma) AP-1-bla reporter, EGF-induced, beta-lactamase ratio, 5 h; at 17.2 µM (top of the series) unless noted
Results filed as inconclusive are left out. Active and inactive are the calls of the source. Calls come from the whole dose curve; as a rule, active = well fitted curve in either direction with a large enough effect (not every such curve was filed as active); inconclusive = small, poorly fitted or top-dose-only effect, or another doubt; inactive = flat fitted curve, though single readings scatter.
Measured metric: activity change, negative = inhibition

activity change, negative = inhibition measured on COc1ccc(/C(O)=C2/C(=O)C(=O)N(CCN3CCOCC3)C2c2ccccn2)cc1 (configuration not stated) = 7.11% (inactive)

activity change, negative = inhibition measured on "COc1ccc(C=NCCCN2CCOCC2)cc1" = -8.54% (inactive)

activity change, negative = inhibition measured on CCc1ccccc1NC(=O)CSC1=C(C#N)C(c2ccc(O)c(OC)c2)C2=C(CCCC2=O)N1 (configuration not stated) = -4.47% (inactive)

activity change, negative = inhibition measured on "CCCCc1nc2sc3c(c2c(=O)[nH]1)CCC3" = -16.9% (inactive)

activity change, negative = inhibition measured on C=CCN1C(=O)CC(C(=O)NC)SC1=Nc1ccc(C(=O)OCC)cc1 (configuration not stated) = -3.69% (inactive)

activity change, negative = inhibition measured on "CCCC(=O)Nc1nn(CCC)c2nc3ccccc3cc12" = -2.33% (inactive)

activity change, negative = inhibition measured on "C=CCNc1nc(C)nc(OC)n1" = 8.25% (inactive)

activity change, negative = inhibition measured on "COc1cc(C)nc(N(C)S(=O)(=O)c2ccccc2Cl)n1" = -3.56% (inactive)

activity change, negative = inhibition measured on "Cc1nc(-c2coc3cc(OCC(=O)O)ccc3c2=O)cs1" = 7.54% (inactive)

activity change, negative = inhibition measured on "O=S1(=O)C[C@@H](N2CCOCC2)[C@H](N2CCOCC2)C1" = -10.3% (inactive)

activity change, negative = inhibition measured on "CCOC(=O)c1[nH]c2ccccc2c1N=C(C)N(CC)CC" = 4.17% (inactive)

activity change, negative = inhibition measured on "CC(C)c1nc2n[nH]c(N)c2c2c1CCCC2" = -8.5% (inactive)

activity change, negative = inhibition measured on "Oc1ccc(Br)cc1CNn1cnnc1" = 2.16% (inactive)

activity change, negative = inhibition measured on CCc1ccc(NC(=O)CSC2=C(C#N)C(c3ccc4c(c3)OCO4)CC(=O)N2)cc1 (configuration not stated) = -19.8% (inactive)

activity change, negative = inhibition measured on O=C(NCc1ccccc1)C1C(=O)N(Cc2ccccc2)C(=O)C1C1(O)CCCC1 (configuration not stated) = -16.6% (inactive)

activity change, negative = inhibition measured on "Cc1cc(Cn2ccnc2)c(C)cc1Cn1ccnc1" = 0.168% (inactive)

activity change, negative = inhibition measured on "CCSc1nc(N)c2c3c(sc2n1)CCC3" = -12.5% (inactive)

activity change, negative = inhibition measured on COCc1[nH]nc2c1C(c1ccccc1OC)C(C#N)=C(N)O2 (configuration not stated) = -14.7% (inactive)

activity change, negative = inhibition measured on "CCOCCN(C(=O)COC)c1cccc(OC)c1" = 20.2% (inactive)

activity change, negative = inhibition measured on "Nc1nonc1-c1noc(-c2ccccc2)n1" = 7.84% (inactive)

activity change, negative = inhibition measured on "O=C(NCCCn1ccnc1)c1cccnc1" = 14.4% (inactive)

activity change, negative = inhibition measured on "CSc1nc2[nH]c3c(c2c2nnnn12)CCCC3" = -20.6% (inactive)

activity change, negative = inhibition measured on CCCCCCCCCCCCCCCC(O)C(N)CO (configuration not stated) = -23.5% (inactive)

activity change, negative = inhibition measured on CCOC(=O)C1=C(C)OC(N)=C(C#N)C1c1cc2ccccc2nc1N1CCCCC1 (configuration not stated) = -11.2% (inactive)

activity change, negative = inhibition measured on "O=C(c1coc(=O)c(Br)c1)N1CCCc2ccccc21" = 11.9% (inactive)

activity change, negative = inhibition measured on "Cc1cc(C)nc(NC(=O)c2ccc(OC(C)C)cc2)n1" = -5.46% (inactive)

activity change, negative = inhibition measured on "O=C(CSc1ncnc2nc[nH]c12)c1ccccc1" = -9.01% [at 7.69 µM] (inactive)

activity change, negative = inhibition measured on O=C(C1=C(O)C(=O)N(c2ncccn2)C1c1cccc(Cl)c1)c1ccco1 (configuration not stated) = -4.37% (inactive)

activity change, negative = inhibition measured on "O=S(=O)(c1cccc(-c2csc(-c3ccccc3)n2)c1)N1CCOCC1" = -13.8% (inactive)

activity change, negative = inhibition measured on CCOC(=O)C(Oc1ccc(=O)[nH]n1)C(C)=O (configuration not stated) = 3.6% (inactive)

activity change, negative = inhibition measured on O=C(Nc1ccc2c(c1)OCO2)c1cc2n(n1)C(C(F)(F)F)CC(c1ccccc1)N2 (configuration not stated) = 6.53% (inactive)

activity change, negative = inhibition measured on CCOc1ccc(C2C=C(c3ccccc3)Nc3ncnn32)cc1 (configuration not stated) = -28.8% (inactive)

activity change, negative = inhibition measured on CC(O)CNc1nc2c(c(=O)n(C)c(=O)n2C)n1Cc1cccc(C(F)(F)F)c1 (configuration not stated) = -10.4% (inactive)

activity change, negative = inhibition measured on "O=C(O)c1cc2cccc(S(=O)(=O)N3CCOCC3)c2cc1O" = 7.94% (inactive)

activity change, negative = inhibition measured on CCOC(=O)C1=C(C)N=C2SC(C)C(=O)N2C1c1cccc(F)c1 (configuration not stated) = -17.6% (inactive)

activity change, negative = inhibition measured on Nc1nc2n(n1)C(c1cccs1)CC(c1ccc(Br)cc1)N2 (configuration not stated) = 0.611% (inactive)

activity change, negative = inhibition measured on CCN(CC)CCCN1C(=O)C(=O)/C(=C(/O)c2ccc(Cl)cc2)C1c1ccccn1 (configuration not stated) = -3.4% (inactive)

activity change, negative = inhibition measured on "CCCCCCCCCCCCCCCCCC(=O)NC[C@@H](COP(=O)([O-])OCC[N+](C)(C)C)OCC" = -12.5% [at 38 µM] (inactive)

activity change, negative = inhibition measured on "c1ccc(C2=Nn3c(nnc3-c3ccccn3)SC2)cc1" = -4.27% (inactive)

activity change, negative = inhibition measured on "O=C(OCCCN1CCCC1)C1(c2ccccc2)CCCC1" = 14.4% (inactive)

activity change, negative = inhibition measured on "N#CC1=C(N)C(C#N)(C#N)[C@H](c2ccncc2)[C@H]2CN(C(=O)OCc3ccccc3)CC=C12" = -27.2% (inactive)

activity change, negative = inhibition measured on "Cc1ccc(C)c(OCc2nnc(NC(=O)c3ccco3)s2)c1" = -0.273% (inactive)

activity change, negative = inhibition measured on "CCCCNC(=O)N(C)c1nncnc1C(=O)NC" = 16.6% (inactive)

activity change, negative = inhibition measured on "COc1ccc(OC)c(NS(=O)(=O)c2ccc(N3CCCC3=O)cc2)c1" = 18.1% (inactive)

activity change, negative = inhibition measured on "C[n+]1cccc(CNC(=O)/C=N/O)c1" = -0.78% (inactive)

activity change, negative = inhibition measured on COc1ccc(C2CC(c3ccccc3)Nc3nc(N)nn32)cc1 (configuration not stated) = 9.32% (inactive)

activity change, negative = inhibition measured on "CCN(CC)CCOC(=O)C1(c2ccc(OC)c(OC)c2)CCCC1" = 10.4% (inactive)

---

- Method summary: Cell Viability - SH-SY5Y (AID 544);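 note: cells exposed to compound for 40 hours; nearly all actives have a fitted effect of over 55% in size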
- Conditions: SH-SY5Y neuroblastoma cell viability
- Text: NIH Chemical Genomics Center [NCGC] NIH Molecular Libraries Screening Centers Network [MLSCN] National Institutes of Environmental Health Sciences [NIEHS] National Toxicology Program [NTP] We have developed a 1536-well cell-based assay for quantitative high throughput screening (qHTS) against a number of cell lines to determine in vitro cytotoxicity of small molecules. […] 8. Detection; Luminescence; Viewlux plate reader […]
Records with an inconclusive call do not appear. Activity calls are given as the source filed them. Calls follow the shape of the dose curve; as a rule, active = well fitted cell-killing curve with a large enough effect; inconclusive = small, poorly fitted or top-dose-only effect; inactive = flat fitted curve, though single readings scatter.
# valid calls are active, inactive; nothing else

Ask: What call does the record list for "CNc1ccc(O)cc1" ?
Result: active

Ask: What call does the record list for "O=C(OCC(COC(=O)c1ccccc1)(COC(=O)c1ccccc1)COC(=O)c1ccccc1)c1ccccc1" ?
Result: inactive

Ask: What call does the record list for "CC/C(=C(\c1ccccc1)c1ccc(OCCN(C)C)cc1)c1ccc(O)cc1" ?
Result: active

Ask: What call does the record list for "Cc1cccc(O)c1C" ?
Result: inactive

Ask: What call does the record list for "C=CC(=O)OCCOCCOC(=O)C=C" ?
Result: active

Ask: What call does the record list for "C=C(C)c1ccccc1" ?
Result: inactive

Ask: What call does the record list for "c1ccc2c(c1)ccc1cc3c(ccc4ccccc43)cc12" ?
Result: inactive

Ask: What call does the record list for "Nc1ccc2cc3ccccc3cc2c1" ?
Result: inactive

Ask: What call does the record list for "Cc1cc(O)c(C(C)(C)C)cc1Sc1cc(C(C)(C)C)c(O)cc1C" ?
Result: active

Ask: What call does the record list for "ClC1=C(Cl)C(Cl)(Cl)C(Cl)=C1Cl" ?
Result: inactive

Ask: What call does the record list for O=C(/C=C/c1ccc(O)c(O)c1)OC1C[C@](O)(C(=O)O)C[C@@H](O)[C@H]1O (stereo partly drawn) ?
Result: inactive

Ask: What call does the record list for "CN(C)c1ccc(C2(c3ccc(N(C)C)cc3)OC(=O)c3cc(N(C)C)ccc32)cc1" ?
Result: inactive

Ask: What call does the record list for "C=CC(=O)OCC(CO)(COC(=O)C=C)COC(=O)C=C" ?
Result: active
